Read-out record for Somatostatin receptor type 1 (Homo sapiens, UniProt P30872): IC50

Input line: Reported IC50 for C[C@@H](O)[C@@H]1NC(=O)[C@H](CCCCN)NC(=O)[C@@H](Cc2c[nH]c3ccccc23)NC(=O)N(C)[C@H](C(=O)c2ccccc2)NC(=O)[C@H](Cc2ccccc2)NC(=O)[C@@H](N)CSSC[C@@H](C(=O)O)NC(=O)[C@H](Cc2ccccc2)NC1=O (stereo in doubt) : what is it?
Output line: > 10 µM

Input line: Reported IC50 for C[C@@H](O)[C@@H]1NC(=O)[C@H](CCCCN)NC(=O)[C@@H](Cc2c[nH]c3ccccc23)NC(=O)N(C)[C@@H](C(=O)c2ccccc2)NC(=O)[C@H](Cc2ccccc2)NC(=O)[C@@H](N)CSSC[C@@H](C(=O)O)NC(=O)[C@H](Cc2ccccc2)NC1=O (stereo in doubt) : what is it?
Output line: > 1 µM

Input line: Reported IC50 for C[C@@H](O)[C@@H]1NC(=O)[C@H](CCCCN)NC(=O)[C@H](Cc2c[nH]c3ccccc23)NC(=O)N(C)[C@@H](C(=O)c2ccccc2)NC(=O)[C@@H](Cc2ccccc2)NC(=O)[C@@H](N)CSSC[C@@H](C(=O)O)NC(=O)[C@H](Cc2ccccc2)NC1=O (stereo in doubt) : what is it?
Output line: > 10 µM

Further cases:
Input line: Reported IC50 for C[C@@H](O)[C@@H]1NC(=O)[C@H](CCCCN)NC(=O)[C@H](Cc2c[nH]c3ccccc23)NC(=O)N(C)[C@H](C(=O)c2ccccc2)NC(=O)[C@H](Cc2ccccc2)NC(=O)[C@@H](N)CSSC[C@@H](C(=O)O)NC(=O)[C@H](Cc2ccccc2)NC1=O (stereo in doubt) : what is it?
Output line: > 10 µM

---

STUDY_TARGET: Somatostatin receptor type 3 (Homo sapiens, UniProt P32745)
Sequence (P32745 whole entry): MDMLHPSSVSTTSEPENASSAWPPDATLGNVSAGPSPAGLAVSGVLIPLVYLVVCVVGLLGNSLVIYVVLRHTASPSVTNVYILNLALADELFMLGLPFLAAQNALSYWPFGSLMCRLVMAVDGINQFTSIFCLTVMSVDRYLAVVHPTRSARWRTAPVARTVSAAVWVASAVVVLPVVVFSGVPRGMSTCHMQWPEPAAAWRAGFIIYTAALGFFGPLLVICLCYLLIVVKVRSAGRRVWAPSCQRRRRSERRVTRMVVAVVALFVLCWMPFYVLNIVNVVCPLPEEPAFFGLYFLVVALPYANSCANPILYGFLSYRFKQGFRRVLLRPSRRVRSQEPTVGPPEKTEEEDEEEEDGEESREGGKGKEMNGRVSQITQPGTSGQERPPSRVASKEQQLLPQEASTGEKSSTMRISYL
pIC50: −log10 of the molar value.
MEASURED_PROPERTY: pIC50

Input line: What measured pIC50 is associated with "C[C@@H](O)[C@@H]1NC(=O)[C@H](CCCCN)NC(=O)[C@H]([C@@H](C)c2ccc3ccccc3c2)NC(=O)[C@H](Cc2ccc(O)cc2)NC(=O)[C@H](Cc2ccccc2)NC(=O)[C@H](N)CSSC[C@@H](C(=O)O)NC(=O)[C@H](Cc2ccccc2)NC1=O" on Somatostatin receptor type 3 (Homo sapiens, UniProt P32745)?
Output line: 6.18

P. C[C@@H](O)[C@@H]1NC(=O)[C@H](CCCCN)NC(=O)[C@@H](Cc2c[nH]c3ccccc23)NC(=O)N(C)[C@@H](C(=O)c2ccccc2)NC(=O)[C@H](Cc2ccccc2)NC(=O)[C@@H](N)CSSC[C@@H](C(=O)O)NC(=O)[C@H](Cc2ccccc2)NC1=O (stereo in doubt)
Q. C[C@@H](O)[C@@H]1NC(=O)[C@H](CCCCN)NC(=O)[C@H](Cc2c[nH]c3ccccc23)NC(=O)N(C)[C@H](C(=O)c2ccccc2)NC(=O)[C@H](Cc2ccccc2)NC(=O)[C@@H](N)CSSC[C@@H](C(=O)O)NC(=O)[C@H](Cc2ccccc2)NC1=O (stereo in doubt)
Input line: Look at P and Q . Which one has the lower recorded pIC50 number? Write the label of whichever entry you select.
Output line: Q
(Q: 6.14, P: 6.35)
